System: U-251
assay.comment: Antiproliferative activity against human U251 cells after 24 hrs by MTT assay
Type: functional, cell-based
assay.setup: U-251, 24 h
Consider the following molecules and their measured IC50 readings.

In the examples that follow, each entry is paired with its recorded IC50.
COc1cc(OC)c(-c2coc3cc(OCc4ccccc4Br)ccc3c2=O)cc1OC
> 10 µM
COc1cccc(-c2coc3c4c(ccc3c2=O)OC(C)(C)C=C4)c1
> 10 µM

// below: IC50 requested for another molecule
Q. Need IC50 of CC1(C)C=Cc2c(ccc3c(=O)c(-c4ccc(O)cc4)coc23)O1 , thanks.
A. > 10 µM
